System: 786-0 complex spheroid viability
Assay: Anticancer human tumor 786-0 cell line growth inhibition;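 further: spheroids exposed to agents for seven days before readout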
Settings: curve of first compound; second compound 10 µM
Recorded IC50 values for a group of compounds are listed next.

| compound | operator.symbol | IC50 (nM) |
| --- | --- | --- |
| CC(C)CC(NC(=O)CNC(=O)c1cc(Cl)ccc1Cl)B1OC(=O)CC(CC(=O)O)(C(=O)O)O1 (configuration not stated) + NC1CC1c1ccc(-c2cccc(O)c2)cc1 | = | 9.46 |
| O=C(c1cc(Cc2n[nH]c(=O)c3ccccc23)ccc1F)N1CCN(C(=O)C2CC2)CC1 + NC1CCC(NC2CC2c2ccccc2)CC1 | = | 8150 |
| CCc1c2c(nc3ccc(O)cc13)-c1cc3c(c(=O)n1C2)COC(=O)[C@]3(O)CC + NC1CC1c1ccc(-c2cccc(O)c2)cc1 | < | 0.949 |
| CC1COCCN1c1cc(-c2ccnn2C)c2ccnc(-c3ccn[nH]3)c2n1 (configuration not stated) + NC1CCC(NC2CC2c2ccccc2)CC1 | = | 12.4 |
| COc1cc(Nc2ncc3c(n2)-c2ccc(Cl)cc2C(c2c(F)cccc2OC)=NC3)ccc1C(=O)O + NC1CC1c1ccc(-c2cccc(O)c2)cc1 | = | 955 |
| CC(C)CC(NC(=O)C(Cc1ccccc1)NC(=O)c1cnccn1)B(O)O (configuration not stated) + NC1CC1c1ccc(-c2cccc(O)c2)cc1 | = | 2.35 |
| CCc1c2c(nc3ccc(O)cc13)-c1cc3c(c(=O)n1C2)COC(=O)[C@]3(O)CC + NC1CCC(NC2CC2c2ccccc2)CC1 | < | 0.949 |
